All figures here come from patent US20240279345A1.

- assay_system: T1, purified recombinant human α5β1 integrin heterodimer, 6×His tagged (rh-α5β1); Acro Biosystems, cat. no. … (human, UniProt P08648 42-995; P05556 21-728)
- T1 construct: bought recombinant heterodimer; also called rh-α5β1-6×His tagged protein; His-tagged-α5β1
- T1 sequence (P08648 42-995 limits assumed, form in doubt, chain 1 of 2): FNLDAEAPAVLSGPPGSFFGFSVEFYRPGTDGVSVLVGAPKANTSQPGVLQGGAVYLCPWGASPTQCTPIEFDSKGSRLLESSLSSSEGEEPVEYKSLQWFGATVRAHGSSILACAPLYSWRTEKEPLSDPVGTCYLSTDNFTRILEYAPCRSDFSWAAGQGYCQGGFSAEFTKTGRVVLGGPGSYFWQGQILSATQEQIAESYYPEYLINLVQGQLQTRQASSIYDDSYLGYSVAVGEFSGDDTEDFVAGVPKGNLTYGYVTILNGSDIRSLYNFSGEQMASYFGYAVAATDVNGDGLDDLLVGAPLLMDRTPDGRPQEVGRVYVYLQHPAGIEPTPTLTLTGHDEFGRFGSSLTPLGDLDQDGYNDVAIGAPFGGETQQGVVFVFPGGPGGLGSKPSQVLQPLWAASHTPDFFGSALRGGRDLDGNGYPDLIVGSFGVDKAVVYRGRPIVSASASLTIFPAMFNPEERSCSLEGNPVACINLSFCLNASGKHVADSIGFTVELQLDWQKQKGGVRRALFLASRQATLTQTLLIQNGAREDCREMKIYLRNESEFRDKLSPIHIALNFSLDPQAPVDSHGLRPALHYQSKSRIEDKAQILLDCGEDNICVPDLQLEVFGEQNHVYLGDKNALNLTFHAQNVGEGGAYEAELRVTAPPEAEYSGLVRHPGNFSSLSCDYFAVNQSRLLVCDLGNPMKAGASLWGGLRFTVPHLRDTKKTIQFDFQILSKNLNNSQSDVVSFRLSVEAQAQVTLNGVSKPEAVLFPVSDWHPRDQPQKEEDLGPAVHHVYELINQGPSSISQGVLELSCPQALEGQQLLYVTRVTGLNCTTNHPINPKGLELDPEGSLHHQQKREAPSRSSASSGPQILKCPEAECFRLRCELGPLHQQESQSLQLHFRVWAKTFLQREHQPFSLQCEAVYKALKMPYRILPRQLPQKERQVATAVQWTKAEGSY
- T1 sequence (P05556 21-728 limits assumed, form in doubt, chain 2 of 2): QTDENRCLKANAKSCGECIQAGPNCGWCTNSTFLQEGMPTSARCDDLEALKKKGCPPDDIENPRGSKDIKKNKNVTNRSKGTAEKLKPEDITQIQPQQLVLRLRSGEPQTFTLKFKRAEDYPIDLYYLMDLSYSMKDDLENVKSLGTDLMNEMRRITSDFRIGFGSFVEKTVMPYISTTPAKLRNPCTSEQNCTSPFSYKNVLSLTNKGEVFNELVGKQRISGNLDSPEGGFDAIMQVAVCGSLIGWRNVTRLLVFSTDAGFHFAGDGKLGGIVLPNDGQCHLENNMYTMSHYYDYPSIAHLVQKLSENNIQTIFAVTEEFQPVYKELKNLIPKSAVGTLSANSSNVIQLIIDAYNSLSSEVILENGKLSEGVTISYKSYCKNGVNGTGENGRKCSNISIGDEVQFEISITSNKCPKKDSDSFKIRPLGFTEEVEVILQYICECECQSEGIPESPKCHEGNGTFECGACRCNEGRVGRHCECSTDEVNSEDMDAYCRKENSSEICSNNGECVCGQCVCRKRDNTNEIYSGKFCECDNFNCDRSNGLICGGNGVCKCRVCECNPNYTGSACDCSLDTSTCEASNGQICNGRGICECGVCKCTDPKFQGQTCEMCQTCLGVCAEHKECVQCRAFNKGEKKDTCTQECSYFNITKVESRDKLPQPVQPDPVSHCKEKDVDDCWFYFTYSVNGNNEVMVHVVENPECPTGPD
- test_details: ELISA, inhibition of rh-α5β1-His binding to coated FN, purified hybridoma mAb
measurement_label: % Max Inhibition
Express the reported value numerically, then name its unit.

Consider the following illustrative entries.
| binder | result |
| --- | --- |
| A2-5D10 (antibody, V domains shown, mouse hybridoma antibody) VH: QVQLKESGPGLVAPSQSLSITCTISGFSLTSYGVHWVRQPPGKGLEWLVVIWSDGSTTYNSTLKSRLSISKDNSKSQVFLKMNSLQTDDTAMYYCARHYDYDGDWFAYWGQGTLVTVSA VL: QILLTQSPAIMSASLGERVTMTCTASSSVSSRCLHWYQQKPGSSPKLWIYSTSNLASGVPARFRGSGSGTSYSLTISSMEAEDAATYYCHQYYRSPPTFGGGTKLEIK | 93% |
| A2-7F01 (antibody, V domains shown, mouse hybridoma antibody) VH: QVQLQQPGAELVKPGASVKLSCKASGYTFTIYWINWVKQRPGQGLEWIGNIYPGSSSTNYNEKFKTKATLTVDTSSSTAYMQLSSLTSDDSAVYYCAITGTGGFAYWGQGTLVTVSA VL: ENVLTQSPAIMSASLGEKVTMSCRASSSVNYMYWYQQKSDASPKLWIYFTSSLAPGVPTRFSGSGSGNSFSLTISSMEGEDAATYYCQQLTGSPFTFGSGTRLEIK | 60% |
| C-14D12 (antibody, V domains shown, mouse hybridoma antibody; also called C-14D12 (hybridoma)) VH: QVQLKESGPDLVAPSQSLSITCTVSGFSLTDYGVHWVRQPPGKGLEWLVVIWSDGSTTYNSALKSRLSITKDTSKRQVFLKMNSLQTDDTAMYYCARHAPSFIRYGSRYDALDYWGQGTSVTVSS VL: QIVLTQSPAIMSASLGERVTLTCTASSSVTSSFLHWYQQKPGSSPKLWIYSTSNLASGVPARFSGSGSGTSYSLTISSMEAEDAATYYCHQYHRSPPTFGGGTKLEIK | 96% |
| A2-7A05 (antibody, V domains shown, mouse hybridoma antibody; also called A2-7A05 (hybridoma)) VH: QVQLQQPGAELVKPGASVKLSCKASGYTFTIYWINWVKQRPGQGLEWIGKIYPGSISTDYNEKFKSKATLTVDTSSSTAYMQLSSLTSDDSAVYYCAITGTGGLAYWGQGTLVTVSA VL: ENVLTQSPAIMSASLGEKVTMTCRASSSVNYMYWYQQKSDASPKLWIYFTSSLAPGVPGRFSGSGSGNSYSLTISTMEGEDAATYYCQQFTTSPFTFGSGTKLEIK | 41% |
| A2-3B06 (antibody, V domains shown, mouse hybridoma antibody) VH: QVQLKESGPGLVAPSQSLSITCTISGFSLTTYGVHWVRQPPGKGLEWLVVIWSDGSTTYNSALKSRLNITKDNSKSQVFLKMNSLQTDDTAMYYCVRHGGLLRRDAMDYWGQGTSVTVSS VL: QIVLTQSPAIMSASLGERVTMTCTASSSVSSNSFHWYQQKPGSSPKLWLYSTSNLASGVPARFSGSGSGTSYSLTISSMEAEDAATYYCHQYLRSPPTFGGGTKLEIK | 93% |

# next binder below
// query % Max Inhibition value for entry A-15B08 (antibody, V domains shown, mouse hybridoma antibody; also called A-15B08 (hybridoma)) VH: QVQLKESGPGLVAPSQSLSITCTISGFSLTSYGVHWVRQPPGKGLEWLVVIWSDGSTTYNSTLKSRLSISKDNSKSQVFFKMNSLQTDDTAMYYCARHYDYDGDWFAYWGQGTLVTVSA VL: QIVLTQSPAIMSASLGERVTMTCTASSRVSSNSLHWYQQKPGSSPKLWIYSTSNLASGVPARFSGSGSGTSYSLTISSMEAEDAATYYCHQYLRSPPTFGGGTKLEIK
96%
